Test summary: recombinant UMI read abundance after kanamycin selection (control-corrected) (log10(CPM+1)); higher = more efficient recombination; extreme values may be limits of the assay; sequences stand for … in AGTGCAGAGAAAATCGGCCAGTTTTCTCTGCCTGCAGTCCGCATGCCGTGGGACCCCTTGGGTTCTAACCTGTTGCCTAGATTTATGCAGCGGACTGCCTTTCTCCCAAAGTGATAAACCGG…AGGTTGGTTTCACT; site = the 11-nt donor;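 further: IS621 bridge recombinase in Escherichia coli cells against a fixed T5 target plasmid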
I would appreciate it if you labelled entries label 1 when recombinant UMI read abundance (log10) is 0.3 or higher, otherwise label 0.

Consider the following illustrative entries.
>>> print(df.to_string())
                              sequence_code  qualitative_label
0  CGGGTTGCATGGACCGGTTTTCCCGGTAATCCGTATTTGGT (site CGGGTTGCTAC)            label 1
1  GCGAAGCCATGGACCGGTTTTCCCGGTAATCCGTATTTGTG (site GCGAAGCCTCA)            label 1
2  AAGTCGCCATGGACCGGTTTTCCCGGTAATCCGTATTTGGT (site AAGTCGCCTAC)            label 0
3  TTGATTCCATGGACCGGTTTTCCCGGTAATCCGTATTTGAC (site TTGATTCCTGT)            label 1
4  CCTACTACATGGACCGGTTTTCCCGGTAATCCGTATTTGGC (site CCTATTACTGC)            label 0
5  GTAGGTCCATGGACCGGTTTTCCCGGTAATCCGTATTTGAC (site GTAGGTTCTGT)            label 0

Lookup: Evaluate TTAACTGCATGGACCGGTTTTCCCGGTAATCCGTATTTGTG (site TTAGCTGCTCA) : recombinant UMI read abundance (log10) at minimum 0.3?
Found: label 0

Lookup: Same question, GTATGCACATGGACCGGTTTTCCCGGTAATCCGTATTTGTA (site GTCTGCACTTA) this time
Found: label 0

Lookup: Same question, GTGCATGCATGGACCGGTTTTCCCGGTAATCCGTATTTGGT (site GTCCATGCTAC) this time
Found: label 0

Hey, just so you know, these numbers are from the supplement of paper PMC11208160.
